Hey, just so you know, these numbers are from PubChem BioAssay (NCI).

Test system: NCI/ADR-RES ovarian
assay overview: NCI tumour cell line growth inhibition, 48 h
reported metric: TGI

A selection of reference data follows.
{"columns": ["molecule", "TGI"],
 "data": [
  ["Clc1ccc(C=NC23CC4CC(CC(C4)C2)C3)c(Cl)c1", "> 10 µM"],
  ["COc1ccc(Cl)cc1NC(=O)c1ccc(NC2=C(Cl)C(=O)N(Cc3ccccc3)C2=O)cc1", "> 100 µM"]
]}

# context switch: different molecule, same TGI
Return reported TGI; argument: "Cc1ccnc(NC(=S)Nc2ccc([N+](=O)[O-])cc2)c1"
> 100 µM

----------
GI50 values for the compounds below.
System: LOX IMVI melanoma
assay overview: NCI tumour cell line growth inhibition, 48 h

A selection of reference data follows.
{"columns": ["compound", "GI50"],
 "data": [
  ["COc1cc2c(cc1OCCCN1CCN(CCCOc3cc4c(cc3OC)C(=O)N3CC(F)(F)C[C@H]3C=N4)CC1)N=C[C@@H]1CC(F)(F)CN1C2=O", "1.89 µM"],
  ["C=C(C)C(C1C=C(CCC(C=O)=C(C)C)C(=O)O1)C1(OC)C=C(C)C(=O)O1 (stereo not given)", "39.6 µM"],
  ["O=c1[nH]c(-c2cccc(F)c2)cc2cc(F)ccc12", "0.613 µM"],
  ["COC(=O)c1c2c(c(C)[n+]([O-])c1C)C(=O)C(NCc1ccc(Br)cc1)=CC2=O", "1.67 µM"]
]}

# query: GI50 | item "COc1ccc(-c2cc(=O)oc3c4c(ccc23)OCN(Cc2ccc(F)cc2)C4)cc1" | system: LOX IMVI melanoma
16.7 µM
